EXPERIMENT DESCRIPTION: Dicamba decarboxylation activity of computationally designed protein variants
CONDITIONS: Table 4, variants designed to introduce activity
OBSERVED PROPERTY: Dicamba Decarboxylation activity

Example results:
{"MOLECULE": "119 (protein, Dicamba decarboxylase variant cloneDC.5.034) MAKKPRIDMHSHFFPRISEQEAAKFDANHAPWLQVSAKGDTGSIMMGKNNFQPVYQALWDPAFRIEEMDAQGVDVQVTCATPVMFGYTWEANKAAQWAERMNDFALEFAAHNPQRIKVLAQVPLQDLDLACKEASRAVAAGHLGIQIGNHLGDKDLDDATLEAFLTHCANEDIPILVHGWDMMGGQRMKKWGLYWLVAHHAEVQLAILSLILSGAFERIPKSLKICFSHGGGSFAFTLGWVDEAWRHVDIVREDCPRPPSEYVDRFFVDSVGNPGALELLVSVMGEDRVMLGSDYPLTTGEQKIGGLVLSSNLGESAKDKIISGNASKFFNINV", "RESULT": "Yes"}
{"MOLECULE": "100 (protein, listed as Reinekea blandensis) MAIIDCHGHYTTTPKGVEDYRNAQKAAVAKDPSFKGEKGQVVVSDDEIRESIENNQLKMQRERGTDLTIFSPRASWMGHHIGNEYTSQFWTEHQNDLIRRVCDLFPKNFAPVAQLPQSPGVDPAKSVPEIVRTVEQMGFIGINLNPDPSGGYWKDTSLADRAFYPIYEKMVEYDIPAMIHVSAACNDCFHTTGSHYLGADTTGFQQLIMSDVFKDFPSLKIIIPHGGGAVPYHWGRFRGLMQDQGYAPLEESALKNIYFDTCVYHQRGIDLLLDIVPTQNILFASEMIGAVRGIDPETGHNFDDTKRYIDNNTALNAEEKAMIFEGNARRVFSRLKTD", "RESULT": "No"}
{"MOLECULE": "118 (protein, Dicamba decarboxylase variant clone DC.5.033) MAKKPRIDMHSHFFPRISEQEAAKFDANHAPWLQVSAKGDTGSIMMGKNNFQPVYQALWDPAFRIEEMDAQGVDVQVTCATPVMFGYTWEANKAAQWAERMNDFALEFAAHNPQRIKVLAQVPLQDLDLACKEASRAVAAGHLGIQIGNHLGDKDLDDATLEAFLTHCANEDIPILVHGTDMMGGQRMKKWGLPWLVALAAEVQLAILSLILSGAFERIPKSLKICFSHGGGSFAFLLGLVDEAWRHVDIVREDCPRPPSEYVDRFFVDSVGNPGALELLVSVMGEDRVMLGSDYPHTTGEQKIGGLVLSSNLGESAKDKIISGNASKFFNINV", "RESULT": "Yes"}
{"MOLECULE": "121 (protein, Dicamba decarboxylase variant clone DC.12.014) MAIIDCHGHYTTTPKGVEDYRNAQKAAVAKDPSFKGEKGQVVVSDDEIRESIENNQLKMQRERGTDLTIFSPRWDAGGHHIGNEYTSQFWTEHQNDLIRRVCDLFPKNFAPVAQLPQSPGVDPAKSVPEIVRTVEQMGFIGINLNPDPSGGYWKDTSLADRAFYPIYEKMVEYDIPAMIHPRLACNACFHTGLSVGLGADTTGFQQLIMSDVFKDFPSLKIIIPHGGGAVPYHWGRFRGLMQDQGYAPLEESALKNIYFDTCVYHQRGIDLLLDIVPTQNILFASEMIGAVRGIDPETGHNFDDTKRYIDNNTALNAEEKAMIFEGNARRVFSRLKTD", "RESULT": "Yes"}

Inquiry: Name the reported Dicamba Decarboxylation activity value associated with the molecule 122 (protein, Dicamba decarboxylase variant clone DC.12.103) MAIIDCHGHYTTTPKGVEDYRNAQKAAVAKDPSFKGEKGQVVVSDDEIRESIENNQLKMQRERGTDLTIFSPRSTAGGHHIGNEYTSQFWTEHQNDLIRRVCDLFPKNFAPVAQLPQSPGVDPAKSVPEIVRTVEQMGFIGINLNPDPSGGYWKDTSLADRAFYPIYEKMVEYDIPAMIHPRNACNDCFHTTGSHALGADTTGFQQLIMSDVFKDFPSLKIIIPHGGGAVPYHWGRFRGLMQDQGYAPLEESALKNIYFDTCVYHQRGIDLLLDIVPTQNILFASDMIGAVRGIDPETGHNFDDTKRYIDNNTALNAEEKAMIFEGNARRVFSRLKTD
Reply text: Yes
